These entries and their values trace back to patent US20260115256A1.

Target: T1, human amylin receptor (AMY3) on CHO-K1/Ga15/AMY3 cells (human, UniProt P30988 25-474; O60896 24-148)
T1 sequence (looked up) 1: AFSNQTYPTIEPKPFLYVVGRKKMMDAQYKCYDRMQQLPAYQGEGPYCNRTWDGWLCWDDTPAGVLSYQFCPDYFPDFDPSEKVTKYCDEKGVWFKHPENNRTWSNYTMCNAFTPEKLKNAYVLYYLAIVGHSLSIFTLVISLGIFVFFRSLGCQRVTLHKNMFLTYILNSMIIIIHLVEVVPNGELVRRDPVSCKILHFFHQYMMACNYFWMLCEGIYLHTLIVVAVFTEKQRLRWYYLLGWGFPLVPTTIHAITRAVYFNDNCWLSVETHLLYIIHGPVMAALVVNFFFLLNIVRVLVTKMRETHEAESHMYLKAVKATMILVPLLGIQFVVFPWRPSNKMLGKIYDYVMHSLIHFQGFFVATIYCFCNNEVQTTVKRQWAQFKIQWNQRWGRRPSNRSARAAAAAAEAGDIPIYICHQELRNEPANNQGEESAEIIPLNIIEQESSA
T1 sequence (looked up) 2: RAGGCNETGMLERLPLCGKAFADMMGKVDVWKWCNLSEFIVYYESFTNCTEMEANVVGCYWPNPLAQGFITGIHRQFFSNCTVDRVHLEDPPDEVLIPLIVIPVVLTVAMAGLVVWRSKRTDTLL
Experiment: cell-based or functional assay
*1 amine or outer side, *2 acyl side, *3 side chain or, on linkers, in order; H or OH if unused. Bridges are numbered along the chain shown (N, C = ends). Primed or numbered codes have the meaning given here. Where no end group is shown, it is not given here. Side-chain parts run from the residue outwards. [ ]: non-standard residue; d: D form. The star is where a group is joined. C20 diacid = O=C(O)CCCCCCCCCCCCCCCCCCC(=O)*; C18 diacid = O=C(O)CCCCCCCCCCCCCCCCC(=O)*; γGlu = O=C(O)[C@H](CCC(=O)[*:2])N[*:1]; Hyp = O=C(O)[C@@H]1C[C@@H](O)CN1; Aze = O=C(O)[C@@H]1CCN1; Dab = NCC[C@H](N)C(=O)O; Trx′ = not defined here; AEEA = NCCOCCOCC(=O)O
Returns: string. Value is class 1 if measured EC50, CRE-luciferase assay is below 0.03 nM, and class 0 if it is greater than or equal to it.

Asked: Take the binder RCNTATCATQRLADFLRHSSNK([γGlu-C18 diacid])LGPILPPTNVGSNT[Hyp]-NH2 (disulfide 2-7 (inferred)) [PD088] and say whether its EC50, CRE-luciferase assay is less than 0.03 nM.
Given back: class 1

Asked: Note, next up: RCNTATCATQRLAEFLRHSSNNLK([γGlu-C20 diacid])PILPPTNVGSNT[Aze]-NH2 (disulfide 2-7 (inferred)) [PD059]
Given back: class 0

Asked: Note, next up: {C20 diacid-γGlu}-KCNTATCATQRLADFLRHSSNNL[Dab]PILPPTNVGSNTP-NH2 (disulfide 2-7 (inferred)) [PD169]
Given back: class 0

Asked: Note, next up: RCNTATCATQRLADFLRHSK([AEEA-AEEA-γGlu-C20 diacid])NNLGPILPPTNVGSNT[Hyp]-NH2 (disulfide 2-7 (inferred)) [PD095]
Given back: class 0

Asked: Note, next up: RCNTATCATQRLADFLRHK([AEEA-γGlu-C18 diacid])SNNLGPILPPTNVGSNT[Hyp]-NH2 (disulfide 2-7 (inferred)) [PD119]
Given back: class 1

Asked: Note, next up: K([γGlu-C20 diacid])CNTATCATQRLADFLRHSSNNLGPILPPTNVGSNT[Hyp]-NH2 (disulfide 2-7 (inferred)) [PD070]
Given back: class 0

Asked: Note, next up: RCNTATCATQRLADFLRHSSNNK([AEEA-AEEA-γGlu-C18 diacid])GPILPPTNVGSNT[Hyp]-NH2 (disulfide 2-7 (inferred)) [PD085]
Given back: class 1

Asked: Note, next up: {C20 diacid-AEEA-AEEA-Trx′}-KCNTATCATQRLADFLRHSSNNLKPILPPTNVGSNTP-NH2 (disulfide 2-7 (inferred); reading uncertain; also: printed as N-terminal: Trx + 2*AEEA + C20 diacid; C-terminal NH2) [PD190]
Given back: class 1

Asked: Note, next up: {C20 diacid-AEEA-AEEA}-DKCNTATCATQRLADFLRHSSNNLKPILPPTNVGSNT[Hyp]-NH2 (disulfide 3-8 (inferred)) [PD182]
Given back: class 0

Asked: Note, next up: {C20 diacid-γGlu}-KCNTATCATQRLADFLRHSSNNFGPILPPTNVGSNT[Hyp]-NH2 (disulfide 2-7 (inferred)) [PD067]
Given back: class 0

Asked: Note, next up: {C20 diacid-γGlu}-KCNTATCATQRLADFLRHSSNNLRPILPPTNVGSNTP-NH2 (disulfide 2-7 (inferred)) [PD161]
Given back: class 1

Asked: Note, next up: RCNTATCATQRLADFLRHSSNK([γGlu-C20 diacid])LGPILPPTNVGSNT[Hyp]-NH2 (disulfide 2-7 (inferred)) [PD086]
Given back: class 0

Asked: Note, next up: {C20 diacid-γGlu}-KCNTATCATQRLADFLRHSSNNLNPILPPTNVGSNTP-NH2 (disulfide 2-7 (inferred)) [PD165]
Given back: class 0

Asked: Note, next up: {C20 diacid-AEEA-AEEA-γGlu}-KCNTATCATQRLADFLRHSSNNLKPILPPTNVGSNT[Hyp]-NH2 (disulfide 2-7 (inferred)) [PD176]
Given back: class 1
